Target: VIM-2 metallo β-lactamase (Pseudomonas aeruginosa, UniProt Q9K2N0)
Construct: made in house
Assay: β-lactamase enzyme inhibition assay (nitrocefin substrate), VIM-2
Type: biochemical
Details: nitrocefin 100 μM, 37° C., PBS pH 7.0; read-out: VIM-2 IC50
Counter-ions that a name gives are not always drawn.
MEASURE: IC50

Notebook: pull reported IC50 for VIM-2 metallo β-lactamase (Pseudomonas aeruginosa, UniProt Q9K2N0), entry C[N+]1(Cc2ccc(CC(=O)N[C@@H](Cc3cccc(C(=O)O)c3O)B(O)O)cc2)CCOCC1 [Example 41, formate]
> 1000 nM

I'm curious: which IC50 was measured for "CC(=O)NCc1ccc(CC(=O)N[C@@H](Cc2cccc(C(=O)O)c2O)B(O)O)cc1" tested on VIM-2 metallo β-lactamase (Pseudomonas aeruginosa, UniProt Q9K2N0)?
> 1000 nM

Fill in the recorded IC50 for this molecule, with VIM-2 metallo β-lactamase (Pseudomonas aeruginosa, UniProt Q9K2N0) as test system: "C/C(=N/O)C(=O)N[C@@H](Cc1cccc(C(=O)O)c1O)B(O)O"
> 1000 nM

---

Tested on: K. pneumoniae expressing the Class A carbapenemase KPC-2
Assay: microbe, parasite or virus in culture
Assay type: cell-based
Details: in presence of Ceftazidime 8 μg/ml (Examples 1-56)
Where a name gives a salt, the structure may show the parent alone.
MEASURE: MIC of example compound, K. pneumoniae KPC-2 (µg/mL)
Quick note: give the figure in µg/mL, leave out the unit.

Reported MIC of example compound, K. pneumoniae KPC-2, molecule "CNCc1cccc(C(=O)N[C@@H](Cc2cccc(C(=O)O)c2O)B(O)O)c1" : ____
0.01

# lookup: MIC of example compound, K. pneumoniae KPC-2 of "CC(=O)Nc1ccc(C(=O)N[C@@H](Cc2cccc(C(=O)O)c2O)B(O)O)cn1"
0.01

Can you look up the measured MIC of example compound, K. pneumoniae KPC-2 of NCc1cccc(C(=O)N[C@@H](Cc2cccc(C(=O)O)c2O)B(O)O)c1 [Example 1, hydrochloride] for me?
0.125

What does the data say about its MIC of example compound, K. pneumoniae KPC-2? Entry: "O=C(N[C@@H](Cc1cccc(C(=O)O)c1O)B(O)O)c1ccc(CN2CCOCC2)cc1"
0.12

# lookup: MIC of example compound, K. pneumoniae KPC-2 of "Br.CC(C)(O/N=C(\C(=O)N[C@@H](Cc1cccc(C(=O)O)c1O)B(O)O)c1csc(N)n1)C(=O)O"
2

What does the data say about its MIC of example compound, K. pneumoniae KPC-2? Entry: "Cl.Nc1ccc(C(=O)N[C@@H](Cc2cccc(C(=O)O)c2O)B(O)O)cn1"
0.03

Need MIC of example compound, K. pneumoniae KPC-2, item "Cl.O=C(N[C@@H](Cc1cccc(C(=O)O)c1O)B(O)O)c1ccc(CNCc2cccnc2)cc1"
0.12
